Recorded IC50 values for a group of compounds are listed next.
target: MDM2 (Homo sapiens)
Sequence (Q00987 whole entry): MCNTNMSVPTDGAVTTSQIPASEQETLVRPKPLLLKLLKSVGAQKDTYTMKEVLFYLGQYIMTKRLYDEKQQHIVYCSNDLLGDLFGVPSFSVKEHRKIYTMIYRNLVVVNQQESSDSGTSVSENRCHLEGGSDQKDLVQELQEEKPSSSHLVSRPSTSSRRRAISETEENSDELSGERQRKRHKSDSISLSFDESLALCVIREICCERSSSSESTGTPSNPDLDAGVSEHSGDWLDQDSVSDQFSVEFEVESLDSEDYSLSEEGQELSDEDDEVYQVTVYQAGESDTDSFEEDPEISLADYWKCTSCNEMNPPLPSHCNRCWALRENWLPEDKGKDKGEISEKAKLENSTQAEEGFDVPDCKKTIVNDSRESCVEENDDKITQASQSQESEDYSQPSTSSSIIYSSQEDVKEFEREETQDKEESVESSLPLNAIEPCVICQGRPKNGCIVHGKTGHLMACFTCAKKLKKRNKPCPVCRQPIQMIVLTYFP
Use nM as the unit, but write only the number.

Entry `CCOc1ccccc1-c1nc2c(n1C(C)C)[C@@]1(C(=O)Nc3cc(Cl)ccc31)N(c1cc(Cl)ccc1C)C2=O` : reported IC50 = ? 23.4

Which IC50 reading was recorded for the compound `CCN(C)c1ncc(-c2nc3c(n2C(C)C)[C@]2(C(=O)Nc4cc(Cl)ccc42)N(c2cc(Cl)ccc2C)C3=O)c(OC)n1` ? 851

Request the reported IC50 associated with `COc1cc(N)c(F)cc1-c1nc2c(n1C(C)C)[C@@]1(C(=O)Nc3cc(Cl)ccc31)N(c1cc(Cl)ccc1C)C2=O` 0.97

Requested field: IC50. Item: `COc1cc(Cl)cc(N2C(=O)c3nc(-c4cnc(OC)nc4OC)n(C(C)C)c3[C@@]23C(=O)Nc2cc(Cl)ccc23)c1` 11.4
